ASSAY METHOD TEXT: Pharmacokinetic evaluation, blood plasma levels by mass spectrometry
Assay type: in vivo
EXPERIMENTAL PARAMETERS: mouse, IV, single injection 19 mg/kg, female nude mice
OUTCOME MEASURE: half-life
Answer by giving the amount and then stating its unit.

Exercise: Output half-life of Cc1oc2ccc(O)c(CN3CCCCCC3)c2c1C(=O)Nc1ccc(C(F)(F)F)cc1 [Compound 23]
Key: 2.25 h

----------
ASSAY METHOD TEXT: Pharmacokinetic evaluation, blood plasma levels by mass spectrometry
Format: in vivo
EXPERIMENTAL PARAMETERS: mouse, IV, single injection 19 mg/kg, female nude mice
OUTCOME MEASURE: Tmax (min)
Give bare numbers, in min.

Exercise: Dear colleague, please send me the reported Tmax for Cc1oc2ccc(O)c(CN3CCCCCC3)c2c1C(=O)Nc1ccc(C(F)(F)F)cc1 [Compound 23] when you can.
Key: 22.8

----------
System: L363 cells
ASSAY METHOD TEXT: L363 cell viability (MTS)
Assay type: cell-based, human
EXPERIMENTAL PARAMETERS: Homo sapiens, L-363, 72 h, after 72 hours; read-out: IC50 myeloma cell viability
OUTCOME MEASURE: IC50 (µM)
Give bare numbers, in µM.

Exercise: Indicate the recorded IC50 value for this compound: Cc1ccc(NC(=O)c2c(C)oc3ccc(O)c(CN4CCCCCC4)c23)cc1
Key: 7.6

----------
Tested on: KMS27
ASSAY METHOD TEXT: Multiple myeloma cell viability
Assay type: cell-based
EXPERIMENTAL PARAMETERS: KMS-27
OUTCOME MEASURE: IC50

Exercise: Recall and state the measured IC50 for Cc1oc2ccc(O)c(CN3CCCCCC3)c2c1C(=O)Nc1ccc(C(F)(F)F)cc1 [Compound 23] .
Key: 5.06 µM
